# testedSystem: recombinant human IL-21 (rhIL-21) (human, UniProt Q9HBE4 30-162, limits assumed)
# Sequence (Q9HBE4 30-162 limits assumed): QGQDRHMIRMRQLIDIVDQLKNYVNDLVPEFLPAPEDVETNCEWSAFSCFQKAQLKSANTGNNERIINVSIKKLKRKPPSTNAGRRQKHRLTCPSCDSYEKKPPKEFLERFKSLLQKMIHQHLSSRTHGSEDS
# assayText: cell-based or functional assay
assayReadout: % pSTAT3+ Jurkat cells, 0.1 nM rhIL-21 + 6.3171 nM antibody
Please state the value followed by its unit.

-- ask Quick check: % pSTAT3+ Jurkat cells, 0.1 nM rhIL-21 + 6.3171 nM antibody of MIZ926 (antibody, human IgG1, V domains shown) VH: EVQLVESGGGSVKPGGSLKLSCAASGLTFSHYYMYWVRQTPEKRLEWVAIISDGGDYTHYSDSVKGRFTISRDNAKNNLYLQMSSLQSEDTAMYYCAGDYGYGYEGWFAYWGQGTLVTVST VL: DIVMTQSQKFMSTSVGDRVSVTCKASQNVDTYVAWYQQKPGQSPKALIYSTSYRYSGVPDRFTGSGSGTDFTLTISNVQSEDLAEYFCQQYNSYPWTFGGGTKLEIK ?
-- reply 57.5%
